- Stated conditions: Crystal; visual observation
Property name: Normal melting temperature (°C)

Example cases with answers are listed next.
- Molecule: "O=C(O)c1ccc(Cl)c([N+](=O)[O-])c1"
  Measurement units: "°C"
  Normal melting temperature: 183.2
- Molecule: "O=C(O)c1ccccc1O [2-hydroxybenzoic acid]"
  Measurement units: "°C"
  Normal melting temperature: 159.6
- Molecule: "Cc1cccc(C(=O)O)c1"
  Measurement units: "°C"
  Normal melting temperature: 109.2
- Molecule: "c1ccc2c(c1)Nc1ccccc1S2 [10H-phenothiazine]"
  Measurement units: "°C"
  Normal melting temperature: 184.8

P: O=C(O)c1cccc([N+](=O)[O-])c1
Q: O=C(C(=O)c1ccccc1)c1ccccc1
[ask] Identify the item whose Normal melting temperature is the smaller number: P or Q Field: selected label. Fill in the label of the entry you choose.
[reply] Q
